Data provenance is paper PMC10647704.

Test system: C. albicans S2 (FLU-resistant)
experimental protocol: microbe, parasite or virus in culture
Assay type: cell-based
test context: Candida albicans, 48 h, read-out: Turbidity Assay IC50 C. albicans S2
reported property: IC50 (µM)
Give bare numbers, in µM.

Examples with answers:
{"compound": "C[C@@H]1C[C@H]2[C@@H](C[C@H]1n1[se]c3ccccc3c1=O)C2(C)C [CHB5]", "units": "µM", "IC50": 14.4}
{"compound": "C[C@H]1[C@H](n2[se]c3ccccc3c2=O)C[C@@H]2C[C@H]1C2(C)C [CHB2]", "units": "µM", "IC50": 6.2}
{"compound": "CC(C)[C@@H]1CC[C@@H](C)C[C@H]1n1[se]c2ccccc2c1=O [CHB6]", "units": "µM", "IC50": 1.8}

Batch of 3 compounds: report IC50 for each.
1. C[C@@H]1[C@@H](n2[se]c3ccccc3c2=O)C[C@H]2C[C@@H]1C2(C)C [CHB1]
2. CC1(C)C2CCC(Cn3[se]c4ccccc4c3=O)C1C2 (single isomer, unassigned; (-)) [CHB3]
3. C[C@H]1CC[C@@H]2[C@H]([C@@H]1n1[se]c3ccccc3c1=O)C2(C)C [CHB4]

1.8
15.1
1.8
